# Tested on: MGC-803
# protocol text: Antiproliferative activity against human MGC-803 cells
# Assay type: functional, cell-based
pIC50: −log10 of the molar value.
The threshold is inclusive: pIC50 of exactly 5 counts as True; values below receive False.

O=C(Cc1c(-c2ccccc2)nc2cc(Cl)ccn12)Nc1ccc2c(c1)S(=O)(=O)C=C2: True
COc1ccc2c(C(=O)Nc3ccc(-c4cc5ccccc5o4)cc3)cc(-c3ccccc3)nc2c1: True
COc1ccn2c(CC(=O)Nc3ccc4c(c3)S(=O)(=O)C=C4)c(-c3ccc(F)cc3)nc2c1: True
COc1ccn2c(CC(=O)Nc3ccc4c(c3)S(=O)(=O)C=C4)c(-c3ccc4ccccc4c3)nc2c1: True
COc1ccc2c(C(=O)Nc3ccc(-c4ccc(F)cc4)cc3)cc(-c3ccccc3)nc2c1: False

q: Check the entry "COc1ccc2c(C(=O)Nc3ccc(C)cc3)cc(-c3ccccc3)nc2c1" : does pIC50 equal or exceed 5?
a: False

q: Check the entry "O=C(O)COc1ccc2c(C(=O)NCc3ccc(C4CCCCC4)cc3)cc(-c3ccccc3)nc2c1" : does pIC50 equal or exceed 5?
a: False

q: Check the entry "COc1ccc2c(C(=O)Nc3ccc(-c4ccco4)cc3)cc(-c3ccccc3)nc2c1" : does pIC50 equal or exceed 5?
a: True

q: Check the entry "COc1ccc(-c2ccc(NC(=O)c3cc(-c4ccccc4)nc4cc(OC)ccc34)cc2)cc1" : does pIC50 equal or exceed 5?
a: True

q: Check the entry "O=C(Nc1ccc(C2CCCCC2)cc1)c1cc(-c2ccccc2)nc2ccccc12" : does pIC50 equal or exceed 5?
a: True

q: Check the entry "O=C(NCc1ccc(C2CCCCC2)cc1)c1cc(-c2ccccc2)nc2ccccc12" : does pIC50 equal or exceed 5?
a: False

q: Check the entry "COc1ccn2c(C(=O)Nc3ccc(C4CCCCC4)cc3)c(-c3ccccc3)nc2c1" : does pIC50 equal or exceed 5?
a: False

q: Check the entry "COc1ccc2c(C(=O)Nc3ccc(C4CCCCC4)cc3)cc(-c3ccccc3)nc2c1" : does pIC50 equal or exceed 5?
a: True

q: Check the entry "O=C(Cc1c(-c2ccccc2)nc2ccc(Br)cn12)Nc1ccc2c(c1)S(=O)(=O)C=C2" : does pIC50 equal or exceed 5?
a: True
